// data source = PubChem BioAssay (NCATS)

studyTarget: Tyrosine-protein kinase Yes (Homo sapiens)
testDescription: qHTS for small molecule inhibitors of Yes1 kinase: Primary Screen (AID 686947); note: nearly all actives have a fitted effect of over 60% in size; note: potency is the fitted concentration of half-maximal effect
appliedConditions: Yes1 kinase biochemical qHTS inhibition; series mostly up to 76.9 µM
Records with an inconclusive call do not appear. Calls of active or inactive are those of the source. Calls come from the whole dose curve; as a rule, active = well fitted inhibition curve with a large enough effect; inconclusive = small, poorly fitted or top-dose-only effect; inactive = no such curve, though single readings can be large or run the other way.
measuredParameter: Potency

| molecularString | Potency |
| --- | --- |
| Nc1ncnc2occ(-c3ccc(NC(=O)Nc4cc(C(F)(F)F)cc(C(F)(F)F)c4)cc3)c12 | 3680 nM (active) |
| CS(=O)(=O)CCNCc1ccc(-c2ccc3ncnc(Nc4ccc(OCc5cccc(C(F)(F)F)c5)cc4)c3c2)o1 | 6540 nM (active) |
| CN1CCN(CCCNc2nc3ccc(Oc4ccc(NC(=O)Nc5cc(C(F)(F)F)ccc5F)cc4)cc3[nH]2)CC1 | inactive |
| CCS(=O)(=O)c1ccc(OC)c(Nc2ncc(-c3cccc(C(C)=O)c3)o2)c1 | 292 nM (active) |
| CNC(=O)c1cncc(C=Cc2c(Cl)cccc2Cl)c1 | 823 nM (active) |
| COc1ccc2ncnc(Nc3ccc(OCc4ccccc4)cc3)c2c1 | 733 nM (active) |

Ask | Return reported Potency; argument: `CCCN1CCC(c2ccc(Nc3nc(Nc4cc(F)ccc4C(N)=O)c4cc[nH]c4n3)c(OC)c2)CC1`
Reply | inactive

Ask | Return reported Potency; argument: `CC(C)=Cc1cccc2[nH]c(O)c(N=Nc3ccc(S(N)(=O)=O)cc3)c12`
Reply | inactive

Ask | Return reported Potency; argument: `N#Cc1c(NC(=O)CN2CCOCC2)sc2c1CCCC2`
Reply | inactive

Ask | Return reported Potency; argument: `NS(=O)(=O)c1ccc(N=Nc2c(O)[nH]c3ccc(-c4cnco4)cc23)cc1`
Reply | inactive

Ask | Return reported Potency; argument: `COc1cc(C=NNc2ncnc3c2cnn3-c2ccccc2)ccc1O`
Reply | 292 nM (active)

Ask | Return reported Potency; argument: `CNC(=O)c1cc(-c2ccc(F)cc2)cc(-c2ccc(S(=O)(=O)N3CCCC3)cc2)c1N`
Reply | inactive

Ask | Return reported Potency; argument: `Nc1ccc(C#Cc2cncnc2Nc2ccc(OCc3cccc(F)c3)c(Cl)c2)cc1`
Reply | inactive
